biological target: Motilin Receptor (Oryctolagus cuniculus); construct: The muscle tissue was homogenized in 10 volumes of 50 mM Tris-Cl; from tissue; host or cells: rabbit colon smooth muscle, crude membrane homogenate; assay: Motilin receptor binding, rabbit colon membranes, 125I porcine motilin; parameters: dose or concentration left out as unconfirmed; details: rabbit colon membranes; read-out: Rabbit Colon % Inh
Please respond with reported inhibition for every item in the list.
Numbers only, in %.

{"columns": ["MOLECULE", "SYSTEM", "inhibition / %"],
 "data": [
  ["CC(C)(C)C(=O)N(Cc1cccc(Cl)c1)C1CCCC(CN(C(=O)c2ccc(F)cc2)c2cccc(OCCN3CCCCC3)c2)C1 (stereo not shown) [compound 237]", "Motilin Receptor (Oryctolagus cuniculus)", 96],
  ["O=C(Nc1ccccc1)N(CC1CCCC(N(Cc2ccccc2)C(=O)CCc2ccccc2)C1)c1cccc(OCCN2CCOCC2)c1 (stereo not shown) [compound 43]", "Motilin Receptor (Oryctolagus cuniculus)", 74],
  ["O=C(CCCC(=O)N(Cc1ccc(F)cc1)c1cccc(OCCN2CCOCC2)c1)N(CCc1ccccc1)Cc1cccc([N+](=O)[O-])c1 [compound 205]", "Motilin Receptor (Oryctolagus cuniculus)", 76],
  ["O=C(CCC(=O)N(Cc1ccc(F)cc1)c1cccc(OCCN2CCOCC2)c1)N(CCc1ccccc1)Cc1ccccc1 [compound 128]", "Motilin Receptor (Oryctolagus cuniculus)", 75],
  ["O=C(c1ccc(F)cc1)N(CC1CCCC(N(Cc2cccc([N+](=O)[O-])c2)C(=O)C(Cl)(Cl)Cl)C1)c1cccc(OCCN2CCOCC2)c1 (stereo not shown) [compound 93]", "Motilin Receptor (Oryctolagus cuniculus)", 100]
]}

Give inhibition for all molecules that follow.
1. O=C(CCCC(=O)N(Cc1ccc(F)cc1)c1cccc(OCCN2CCCC2)c1)N(CCN1CCCC1)Cc1cccc(Cl)c1 [compound 203]
2. O=C(c1ccc(F)cc1)N(CC1CCCC(N(Cc2cc(Cl)cc(Cl)c2)C(=O)C(Cl)(Cl)Cl)C1)c1cccc(OCCN2CCOCC2)c1 (stereo not shown) [compound 98]
3. O=C(Nc1ccccc1)N(CC1CCCC(N(Cc2ccccn2)C(=O)C(Cl)(Cl)Cl)C1)c1cccc(OCCN2CCOCC2)c1 (stereo not shown) [compound 68]
4. COc1cccc(C(=O)N(Cc2cccc(Cl)c2)C2CCCC(CN(C(=O)c3ccc(F)cc3)c3cccc(OCCN4CCOCC4)c3)C2)c1 (stereo not shown) [compound 106]

1: 98; 2: 75; 3: 73; 4: 69

Give inhibition for all molecules that follow.
1. O=C(CCC(=O)N(Cc1cccc(F)c1)c1cccc(OCCN2CCOCC2)c1)N(CCc1ccccc1)Cc1ccccc1 [compound 164]
2. COc1ccc(CCN(Cc2cccc(Cl)c2)C(=O)CCCN(C(=O)c2ccc(F)cc2)c2cccc(OCCN3CCOCC3)c2)cc1 [compound 147]
3. CC(C)(C)C(=O)N(Cc1ccccc1)[C@@H]1CCC[C@H](CN(C(=O)Nc2ccccc2)c2cccc(OCCN3CCCC3)c2)C1 [compound 225]
4. Cc1c(OCCN2CCOCC2)cccc1N(Cc1ccc(F)cc1)C(=O)CCCC(=O)N(CCc1ccccc1)Cc1ccccc1 [compound 234]

[84, 61, 93, 86]

---

target: Motilin Receptor (Oryctolagus cuniculus, UniProt G1T803); construct: The muscle tissue was homogenized in 10 volumes of 50 mM Tris-Cl; from tissue; host or cells: rabbit colon smooth muscle, crude membrane homogenate; assay: Motilin receptor binding, rabbit colon membranes, 125I porcine motilin
Sequence (G1T803 1-400): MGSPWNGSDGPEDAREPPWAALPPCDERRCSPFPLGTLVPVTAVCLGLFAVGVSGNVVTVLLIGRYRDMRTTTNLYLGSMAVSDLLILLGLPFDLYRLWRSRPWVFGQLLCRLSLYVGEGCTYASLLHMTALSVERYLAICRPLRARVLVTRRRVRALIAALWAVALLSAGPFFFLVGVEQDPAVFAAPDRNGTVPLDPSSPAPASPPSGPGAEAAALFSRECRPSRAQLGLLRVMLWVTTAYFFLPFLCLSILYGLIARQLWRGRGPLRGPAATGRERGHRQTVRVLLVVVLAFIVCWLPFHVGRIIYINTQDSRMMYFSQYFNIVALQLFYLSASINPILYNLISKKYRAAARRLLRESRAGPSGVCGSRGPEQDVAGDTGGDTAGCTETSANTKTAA
PROPERTY MEASURED: pIC50
Give bare numbers, as −log10 of the molar value.

Recorded pIC50 for O=C(CCCN(C(=O)c1ccc(F)cc1)c1cccc(OCCN2CCOCC2)c1)N(CCc1ccccc1)Cc1ccccc1 , please?
6.16
